Where do these numbers come from? They come from patent US8378104B2.

Tested on: p-p38 in HCT-116 cells
Experiment: Phospho-p38 Meso Scale ELISA assay, TNFα-stimulated HCT-116 cells
Assay type: cell-based
Conditions: Homo sapiens, read-out: mean HCT-116 p-p38 ELISA IC50 (Col. C)
Protocol: Detailed below are ELISA assays for pJNK and p38, and a TAK1 biochemical assay. […] In Table 1, Col. • 1. Plate HCT-116 cells at 25,000 per well in 100 uL in 96 well clear dishes in normal growth medium. Day 2: • 1. Aspirate medium and replace with 90 μl reduced serum growth medium (1% FCS), incubate for 2 hours at 37° C. • 2. Make drugs at 10× in reduced serum medium and add 10 uL per well. • 3. Incubate at 37° C. for 4 hrs. • 4. […] Read on Sector Imager. […] Read on Sector Imager. […]
pIC50: −log10 of the molar value.
Listing of entries alongside the reported pIC50.

Past entries and their recorded results:
CC(=O)N1CCC(n2cc(-c3cnc(N)c4oc(-c5ccc6scnc6c5)cc34)cn2)CC1 | 6.00 to 7.00
CS(=O)(=O)CCN1CCC(n2cc(-c3cnc(N)c4oc(-c5cccc6cnccc56)cc34)cn2)CC1 | 6.00 to 7.00
CC(=O)N1CCC(n2cc(-c3cnc(N)c4oc(-c5ccc6c(c5)OCO6)cc34)cn2)CC1 | 5.00 to 6.00

Let us move to another entry and its pIC50.
**Q:** Identify pIC50 associated with the compound `CC1(C)OC[C@@H](Cn2cc(-c3cnc(N)c4oc(-c5csc6cnccc56)cc34)cn2)O1`
**A:** 5.00 to 6.00

---

System: p-p38 in HCT-116 cells
Assay: Phospho-p38 Meso Scale ELISA assay, TNFα-stimulated HCT-116 cells
Type: cell-based
Conditions: Homo sapiens, read-out: mean HCT-116 p-p38 ELISA IC50 (Col. C)
Protocol: Detailed below are ELISA assays for pJNK and p38, and a TAK1 biochemical assay. […] In Table 1, Col. • 1. Plate HCT-116 cells at 25,000 per well in 100 uL in 96 well clear dishes in normal growth medium. Day 2: • 1. Aspirate medium and replace with 90 μl reduced serum growth medium (1% FCS), incubate for 2 hours at 37° C. • 2. Make drugs at 10× in reduced serum medium and add 10 uL per well. • 3. Incubate at 37° C. for 4 hrs. • 4. […] Read on Sector Imager. […] Read on Sector Imager. […]
QUANTITY: IC50

**Q:** Identify measured IC50 corresponding to `CNc1ncc(-c2cnn([C@H]3CC[C@H](O)CC3)c2)c2cc(-c3csc4cnccc34)oc12`
**A:** < 0.1 µM

**Q:** Give the reported IC50 for this compound. `CSc1ccccc1-c1cc2c(-c3cnn(C4CCN(C(C)=O)CC4)c3)cnc(N)c2o1`
**A:** 0.1 to 1 µM

**Q:** Check the records and state IC50 for `CC(C)N1CCC(n2cc(-c3cnc(N)c4oc(-c5cccc6cnccc56)cc34)cn2)CC1`
**A:** 0.1 to 1 µM

**Q:** Note down IC50 recorded for `CCN1CCC(n2cc(-c3cnc(N)c4oc(-c5cccc6cnccc56)cc34)cn2)CC1`
**A:** 0.1 to 1 µM

**Q:** Tell me its IC50 given `CC(=O)N1CCC(n2cc(-c3cnc(N)c4oc(-c5cccc(S(C)(=O)=O)c5)cc34)cn2)CC1` as the entry.
**A:** 1 to 10 µM
